- System: Staphylococcus aureus
- experiment_description: Bactericidal activity against Staphylococcus aureus ATCC25923 incubated for 20 to 24 hrs
- Assay type: functional
- assay_setup: time 20-24 hrs
test_readout: MBC (µg/mL)
Express your answer in µg/mL, writing the number without its unit.

Here are 2 molecules together with their reported answers.
Look at this molecule and give its reported MBC. CC[C@H]1OC(=O)C[C@@H](O)[C@H](C)[C@@H](O[C@@H]2O[C@H](C)[C@@H](O)[C@H](N(C)C)[C@H]2O)[C@@H](CCNCc2cn(-c3cnc4ccccc4c3)nn2)C[C@@H](C)C(=O)/C=C/C(C)=C/[C@@H]1CNCc1ccc(C)cc1
1

Look at this molecule and give its reported MBC. CC[C@H]1OC(=O)C[C@@H](O)[C@H](C)[C@@H](O[C@@H]2O[C@H](C)[C@@H](O)[C@H](N(C)C)[C@H]2O)[C@@H](CCN2CCCCC2)C[C@@H](C)C(=O)/C=C/C(C)=C/[C@@H]1CN1CCCCC1
4

Continuing:
Look at this molecule and give its reported MBC. CC[C@H]1OC(=O)C[C@@H](O)[C@H](C)[C@@H](O[C@@H]2O[C@H](C)[C@@H](O)[C@H](N(C)C)[C@H]2O)[C@@H](CCN(C)Cc2cn(-c3cnc4ccccc4c3)nn2)C[C@@H](C)C(=O)/C=C/C(C)=C/[C@@H]1CNCc1cccc(C)c1
2

###

Some compounds, each annotated with its measured MIC.
- System: Escherichia coli
- experiment_description: Antibacterial activity against Escherichia coli ATCC25922 under 10^7 CFU/ml of bacterial inoculum culture by absorbance based assay
- Assay type: functional
Express your answer in µg/mL, writing the number without its unit.

Look at this compound and give its reported MIC. CC[C@H]1OC(=O)C[C@@H](O)[C@H](C)[C@@H](O[C@@H]2O[C@H](C)[C@@H](O[C@H]3C[C@@](C)(O)[C@@H](O)[C@H](C)O3)[C@H](N(C)C)[C@H]2O)[C@@H](CC=O)C[C@@H](C)C(=O)/C=C/C(C)=C/[C@@H]1CO[C@@H]1O[C@H](C)[C@@H](O)[C@@H](OC)[C@H]1OC [TYLOSIN]
2

Continuing:
Look at this compound and give its reported MIC. CC[C@H]1OC(=O)C[C@@H](O)[C@H](C)[C@@H](O[C@@H]2O[C@H](C)[C@@H](O)[C@H](N(C)C)[C@H]2O)[C@@H](CCN(C)Cc2cn(-c3cnc4ccccc4c3)nn2)C[C@@H](C)C(=O)/C=C/C(C)=C/[C@@H]1CNCc1cccc(C)c1
0.5

###

Some molecules, each annotated with its measured MIC.
- Tested on: Escherichia coli
- experiment_description: Antibacterial activity against Escherichia coli ATCC25922 incubated for 16 to 20 hrs by broth microdilution method
- Format: functional
- assay_setup: time 16-20 hrs
Express your answer in µg/mL, writing the number without its unit.

Look at this molecule and give its reported MIC. CC[C@H]1OC(=O)C[C@@H](O)[C@H](C)[C@@H](O[C@@H]2O[C@H](C)[C@@H](O)[C@H](N(C)C)[C@H]2O)[C@@H](CCN(C)Cc2cn(-c3cnc4ccccc4c3)nn2)C[C@@H](C)C(=O)/C=C/C(C)=C/[C@@H]1CN(C)C1CCCCC1
4

Next molecule, please.
Look at this molecule and give its reported MIC. CC[C@H]1OC(=O)C[C@@H](O)[C@H](C)[C@@H](O[C@@H]2O[C@H](C)[C@@H](O)[C@H](N(C)C)[C@H]2O)[C@@H](CCN(Cc2cn(-c3cnc4ccccc4c3)nn2)c2ccccc2)C[C@@H](C)C(=O)/C=C/C(C)=C/[C@@H]1CN(C)C(C)C
8

###

- Tested on: Staphylococcus aureus
- experiment_description: Antibacterial activity against Staphylococcus aureus ATCC25923 incubated for 16 to 20 hrs by broth microdilution method
- Type: functional
- assay_setup: time 16-20 hrs
test_readout: MIC (µg/mL)
Express your answer in µg/mL, writing the number without its unit.

Could you share what MIC was measured for CC[C@H]1OC(=O)C[C@@H](O)[C@H](C)[C@@H](O[C@@H]2O[C@H](C)[C@@H](O)[C@H](N(C)C)[C@H]2O)[C@@H](CCN(Cc2cn(-c3cnc4ccccc4c3)nn2)c2ccccc2)C[C@@H](C)C(=O)/C=C/C(C)=C/[C@@H]1CN(C)C1CCCCC1 , tested on Staphylococcus aureus?
0.5

Continuing:
Could you share what MIC was measured for CCCNC[C@H]1/C=C(C)/C=C/C(=O)[C@H](C)C[C@H](CCN(C)Cc2cn(-c3cnc4ccccc4c3)nn2)[C@H](O[C@@H]2O[C@H](C)[C@@H](O)[C@H](N(C)C)[C@H]2O)[C@@H](C)[C@H](O)CC(=O)O[C@@H]1CC , tested on Staphylococcus aureus?
2

Could you share what MIC was measured for CC[C@H]1OC(=O)C[C@@H](O)[C@H](C)[C@@H](O[C@@H]2O[C@H](C)[C@@H](O)[C@H](N(C)C)[C@H]2O)[C@@H](CCN(C)Cc2cn(-c3cnc4ccccc4c3)nn2)C[C@@H](C)C(=O)/C=C/C(C)=C/[C@@H]1CNCc1cccc(Br)c1 , tested on Staphylococcus aureus?
4

Could you share what MIC was measured for CC[C@H]1OC(=O)C[C@@H](O)[C@H](C)[C@@H](O[C@@H]2O[C@H](C)[C@@H](O)[C@H](N(C)C)[C@H]2O)[C@@H](CCN(C)Cc2cn(-c3cnc4ccccc4c3)nn2)C[C@@H](C)C(=O)/C=C/C(C)=C/[C@@H]1CN(C)Cc1ccccc1 , tested on Staphylococcus aureus?
0.5

###

- Test system: Staphylococcus aureus
- experiment_description: Antibacterial activity against Staphylococcus aureus ATCC25923 incubated for 16 to 20 hrs by broth microdilution method
- Assay type: functional
- assay_setup: time 16-20 hrs
test_readout: MIC (µg/mL)
Express your answer in µg/mL, writing the number without its unit.

Look at this compound and give its reported MIC. CC[C@H]1OC(=O)C[C@@H](O)[C@H](C)[C@@H](O[C@@H]2O[C@H](C)[C@@H](O)[C@H](N(C)C)[C@H]2O)[C@@H](CCN(C)Cc2cn(-c3cnc4ccccc4c3)nn2)C[C@@H](C)C(=O)/C=C/C(C)=C/[C@@H]1CNCc1cccc(C)c1
0.5

Next compound, please.
Look at this compound and give its reported MIC. CC[C@H]1OC(=O)C[C@@H](O)[C@H](C)[C@@H](O[C@@H]2O[C@H](C)[C@@H](O)[C@H](N(C)C)[C@H]2O)[C@@H](CCN(C)Cc2cn(-c3cnc4ccccc4c3)nn2)C[C@@H](C)C(=O)/C=C/C(C)=C/[C@@H]1CNCc1ccc(F)cc1
2

###

- Tested on: Escherichia coli
- experiment_description: Antibacterial activity against Escherichia coli ATCC25922 incubated for 16 to 20 hrs by broth microdilution method
- Type: functional
- assay_setup: time 16-20 hrs
test_readout: MIC (µg/mL)
Express your answer in µg/mL, writing the number without its unit.

Look at this molecule and give its reported MIC. CCCN(C)C[C@H]1/C=C(C)/C=C/C(=O)[C@H](C)C[C@H](CCN(Cc2cn(-c3cnc4ccccc4c3)nn2)c2ccccc2)[C@H](O[C@@H]2O[C@H](C)[C@@H](O)[C@H](N(C)C)[C@H]2O)[C@@H](C)[C@H](O)CC(=O)O[C@@H]1CC
4

###

- Test system: Staphylococcus aureus
- experiment_description: Antibacterial activity against Staphylococcus aureus ATCC25923 incubated for 16 to 20 hrs by broth microdilution method
- Format: functional
- assay_setup: time 16-20 hrs
# note: exactly 1 µg/mL is not below, so it is Condition not met; use Condition met for MIC strictly under it

Example entries and their recorded answers appear below.
Say whether its MIC is strictly beneath 1 µg/mL. Entry: CC[C@H]1OC(=O)C[C@@H](O)[C@H](C)[C@@H](O[C@@H]2O[C@H](C)[C@@H](O)[C@H](N(C)C)[C@H]2O)[C@@H](CCN(C)Cc2cn(-c3cnc4ccccc4c3)nn2)C[C@@H](C)C(=O)/C=C/C(C)=C/[C@@H]1CNCc1ccc(Cl)cc1
Condition not met

Say whether its MIC is strictly beneath 1 µg/mL. Entry: C[C@@H](O)[C@H]1C(=O)N2C(C(=O)O)=C(S[C@@H]3CN[C@H](C(=O)N(C)C)C3)[C@H](C)[C@H]12
Condition met

Say whether its MIC is strictly beneath 1 µg/mL. Entry: CC[C@H]1OC(=O)C[C@@H](O)[C@H](C)[C@@H](O[C@@H]2O[C@H](C)[C@@H](O)[C@H](N(C)C)[C@H]2O)[C@@H](CCN(C)Cc2cn(-c3cnc4ccccc4c3)nn2)C[C@@H](C)C(=O)/C=C/C(C)=C/[C@@H]1CN(Cc1ccccc1)C(C)C
Condition not met

Say whether its MIC is strictly beneath 1 µg/mL. Entry: CC[C@H]1OC(=O)C[C@@H](O)[C@H](C)[C@@H](O[C@@H]2O[C@H](C)[C@@H](O)[C@H](N(C)C)[C@H]2O)[C@@H](CCNCc2cn(-c3cnc4ccccc4c3)nn2)C[C@@H](C)C(=O)/C=C/C(C)=C/[C@@H]1CN(CC)CC
Condition met

Now consider the entry below.
Say whether its MIC is strictly beneath 1 µg/mL. Entry: CC[C@H]1OC(=O)C[C@@H](O)[C@H](C)[C@@H](O[C@@H]2O[C@H](C)[C@@H](O)[C@H](N(C)C)[C@H]2O)[C@@H](CCN(C)Cc2cn(-c3cnc4ccccc4c3)nn2)C[C@@H](C)C(=O)/C=C/C(C)=C/[C@@H]1CN(CC)Cc1ccccc1
Condition not met

The reported measurements were obtained from ChEMBL document CHEMBL6074711.
